Test system: PC-3M
assay-procedure: Inhibition of PC3M cells by SRB assay after 96 hrs
Assay type: functional
measurement-context: Homo sapiens
assay-readout: GI50 (µM)

In the examples that follow, each entry is paired with its recorded GI50.
> print(dat)
                                   molecule  target.system  measurement.units  data.value
1  NC(Cc1ccccc1)c1ccc(-c2ncnc3[nH]cnc23)cc1 (stereo not drawn)          PC-3M                 µM          32
2  NC(c1ccccc1)c1ccc(-c2ncnc3[nH]cnc23)cc1 (stereo not drawn)          PC-3M                 µM          32

[P] Clc1ccc(C2(c3ccc(-c4ncnc5[nH]cnc45)cc3)CCNCC2)cc1
[Q] NC(c1ccc(Cl)cc1)c1ccc(-c2ncnc3[nH]cnc23)cc1 (stereo not drawn)
[R] CNC(c1ccc(Cl)cc1)c1ccc(-c2ncnc3[nH]cnc23)cc1 (stereo not drawn)
Parameters: sort_field (GI50), sort_dir (desc). List each label, following the requested order.
Q, R, P

====

target-system: cAMP-dependent protein kinase (PKA) (Homo sapiens, UniProt P22694+P17612+P22612)
assay-procedure: Inhibition of PKA by radiometric filter binding assay
Type: protein assay
assay-readout: IC50 (nM)

> print(dat)
                         compound  assay.readout  data.value
1  CNCc1ccc(-c2ncnc3[nH]cnc23)cc1           IC50        5200

[A] Clc1ccc(C2(c3ccc(-c4ncnc5[nH]cnc45)cc3)CCNCC2)cc1
[B] CNCc1cccc(-c2ncnc3[nH]cnc23)c1
[C] CNC(c1ccc(Cl)cc1)c1ccc(-c2ncnc3[nH]cnc23)cc1 (stereo not given)
[D] NC(Cc1ccccc1)c1ccc(-c2ncnc3[nH]cnc23)cc1 (stereo not given)
Parameters: sort_field (IC50), sort_dir (desc). List each label, following the requested order.
B, D, A, C

====

Tested on: PC-3M
assay-procedure: Inhibition of PC3M cells by SRB assay after 96 hrs
Type: functional
measurement-context: Homo sapiens
assay-readout: GI50

In the examples that follow, each entry is paired with its recorded GI50.
> print(dat)
                      item.smiles  data.value
1  NCCc1cccc(-c2ncnc3[nH]cnc23)c1     > 50 µM
2  CNCc1cccc(-c2ncnc3[nH]cnc23)c1     > 50 µM

Determine its reported GI50: "CNCc1ccc(-c2ncnc3[nH]cnc23)cc1"
> 50 µM
